This listing pairs molecules with measured IC50.
molecular target: MOS1-ITR complexes (Drosophila mauritiana); assay: Electrophoretic mobility shift test (EMSA), assembly of MOS1-ITR complexes; details: MOS1-ITR bond
Sequence (Q7JQ07 whole entry, one chain of several): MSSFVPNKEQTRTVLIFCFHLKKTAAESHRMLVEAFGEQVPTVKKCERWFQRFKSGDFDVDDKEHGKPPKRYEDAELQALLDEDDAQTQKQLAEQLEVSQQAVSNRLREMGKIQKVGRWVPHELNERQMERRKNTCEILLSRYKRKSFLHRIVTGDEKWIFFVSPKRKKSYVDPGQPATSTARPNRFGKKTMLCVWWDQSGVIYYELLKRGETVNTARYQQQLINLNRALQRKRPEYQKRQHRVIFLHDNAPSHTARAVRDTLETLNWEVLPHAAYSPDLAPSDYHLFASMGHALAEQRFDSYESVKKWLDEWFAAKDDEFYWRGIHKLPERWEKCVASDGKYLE
Kindly write the number and append the unit.

• O=C/C=C/c1ccc(C2=C(c3ccc(/C=C/C=O)o3)C(=O)N(Cc3ccccc3)C2=O)o1 [Compound 4] = 12 µM
• O=C(O)c1ccc(C2=C(c3ccc(C(=O)O)o3)C(=O)N(c3ccc(O)cc3)C2=O)o1 [Compound 2] = 15 µM

Continue with the next molecule.
Exam item: Write down IC50 measured for item CCOC(=O)C(Cc1ccccc1)N1C(=O)C(c2ccc(C(=O)O)o2)=C(c2ccc(C(=O)O)o2)C1=O (stereo not drawn) [Compound 3]
Marked response: 30 µM
